SYSTEM_TESTED: TRAILshort (UniProt P50591)
Sequence (P50591 other isoform, or with tags, fused parts or gaps): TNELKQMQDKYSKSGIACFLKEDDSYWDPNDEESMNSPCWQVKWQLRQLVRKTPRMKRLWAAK
EXPERIMENTAL_DETAILS: SPR
pKd: −log10 of the molar value.

[
  {
    "BINDER": "HC4LC3 (antibody, human IgG1, kappa, V domains shown) VH: QVQLVESGAEVKKPGASVKVSCKVSGYIFTNNDMNWVRQAPGEGLEWMGGIDPGDGRTKYNEKFKGRVTMTEDTSTDTAYMELSSLRSEDTAVYYCGRGGYEFGIDYWGQGTTVTVSS VL: DIVMTQSPDSLAVSLGERATINCKSSQSLLNSGNQKNSLAWYQQRPGHPPKLLLYGASTRESGVPDRFSGSGSGTDFTLTISSLQAEDVAVYYCQNDHSFPLTFGGGTKVEIKR",
    "pKd": 10.51
  },
  {
    "BINDER": "HC2LC3 (antibody, human IgG1, kappa, V domains shown) VH: QVQLVQSGAEVKKPGASVKVSCKASGYIFTNNDMNWVRQAPGQGLEWMGGIDPGDGRTKYNEKFKGRVTMTRDTSTNTVYMELSSLTSEDTAVYFCGRGGYEFGIDYWGQGTTVTVSS VL: DIVMTQSPDSLAVSLGERATINCKSSQSLLNSGNQKNSLAWYQQRPGHPPKLLLYGASTRESGVPDRFSGSGSGTDFTLTISSLQAEDVAVYYCQNDHSFPLTFGGGTKVEIKR",
    "pKd": 11.42
  },
  {
    "BINDER": "HC0LC0 (antibody, human IgG1, kappa, V domains shown) VH: QVQLQQSGPELVKPGASVKISCKASGYIFTNNDMNWVKQRPGQGLEWIGGIDPGDGRTKYNEKFKGKATLTADKFSNTVYMQLSSLTSENSAVYFCGRGGYEFGIDYWGQGTSVTVSS VL: DIVMTQSPSSLSVSAGEKVTMSCKSSQSLLNSGNQKNSLAWYQQKPGRPPTLLISGASTRESGVPDRFTGSGSGTDFTLTISSVQAEDLAVYYCQNDHSFPLTFGAGTKLELKR",
    "pKd": 11.52
  },
  {
    "BINDER": "HC1LC3 (antibody, human IgG1, kappa, V domains shown) VH: QVQLVQSGAEVKKPGATVKISCKVSGYIFTNNDMNWVQQAPGKGLEWMGGIDPGDGRTKYNEKFKGRVTITADESTSTAYMELSSLRSEDTAVYYCGRGGYEFGIDYWGQGTLVTVSS VL: DIVMTQSPDSLAVSLGERATINCKSSQSLLNSGNQKNSLAWYQQRPGHPPKLLLYGASTRESGVPDRFSGSGSGTDFTLTISSLQAEDVAVYYCQNDHSFPLTFGGGTKVEIKR",
    "pKd": 11.00
  }
]
